Measured melting point accompanies every entry in the list below.
property name: melting point (°C)

test_smiles=Cc1cccc(C2=CCN(CCCCCC(=O)N3Cc4ccccc4C3)CC2)c1C#N property_name="melting point" value_observed=71
test_smiles=Nc1ccc(S(=O)(=O)C(F)(F)F)c2sc3ccccc3c12 property_name="melting point" value_observed=108

----------
property name: melting point

compound=CCOc1ncc(NC(=O)Nc2c(CC)cccc2CC)c(-c2ccccc2Cl)n1 property_name="melting point" value_observed="190 to 191 °C"
compound=O=C1c2c(O)ccc(O)c2C(=O)c2c(NCCN(CCO)CCO)ccc(NCCN(CCO)CCO)c21 property_name="melting point" value_observed="134 to 136 °C"
compound="Cc1[nH]cnc1CSCCNC(=O)NCCCCN(C)CCC(c1ccc(Cl)cc1)c1ccccn1 (stereo not given)" property_name="melting point" value_observed="97 to 98 °C"
compound=NS(=O)(=O)c1cc2c(s1)S(=O)(=O)CC=C2 property_name="melting point" value_observed="210 to 212 °C"
compound=Cc1ccc(Cn2cc(CC(=O)O)c3cc(-c4ccc(OC(F)(F)F)cc4)ccc32)cc1 property_name="melting point" value_observed="62 to 63 °C"
compound=O=C(NCCCc1ccncc1)N(CC=Cc1ccccc1)CCC12CC3CC(CC(C3)C1)C2 property_name="melting point" value_observed="130 to 134 °C"
compound=Cc1cc(NS(=O)(=O)c2ccccc2)cc(C)c1S(=O)(=O)C(Cl)(Cl)[N+](=O)[O-] property_name="melting point" value_observed="112 to 114 °C"
compound="CS(=O)c1nc(-c2ccccc2)c(-c2ccccc2)o1 (stereo not given)" property_name="melting point" value_observed="75 to 78 °C"
compound=Cc1nc(-c2cccc(CNc3ccccc3)c2)no1 property_name="melting point" value_observed="75 to 76 °C"
compound=CC(C)c1oc(C=Cc2ccccc2)nc1C(=O)O property_name="melting point" value_observed="141 to 142 °C"
compound="Cn1c2cc(C(O)CO)ccc2c2c3c(c(-c4ccccc4Cl)cc21)C(=O)NC3=O (stereo not given)" property_name="melting point" value_observed="252 to 255 °C"
compound=Cc1sc(C)c2c(=O)n3cc(C#N)ccc3nc12 property_name="melting point" value_observed="242 to 244 °C"
compound=Cc1cccc(C(=O)Nc2c(C(O)(C(F)(F)F)C(F)(F)F)ccc3ccccc23)c1 property_name="melting point" value_observed="167 to 168 °C"
compound=NNc1nccc(-c2ccc(Oc3ccccc3)cc2)c1Cl property_name="melting point" value_observed="173 °C"
compound=CCOc1cc(F)ccc1N1CCN(Cc2ccc(CNC(C)=O)cc2)CC1 property_name="melting point" value_observed="108 to 109 °C"
compound="COC(=O)C1Cc2sc(N)c(C(=O)c3ccccc3Cl)c2C1 (stereo not given)" property_name="melting point" value_observed="120 to 125 °C"
compound=CCCCN(CCCC)CCN=c1sc2ccccc2s1 property_name="melting point" value_observed="122 to 123 °C"
compound=O=C(O)CCC(=O)Oc1ccc(N(CCCl)CCCl)cc1 property_name="melting point" value_observed="98 to 100 °C"
compound=COC(=O)Cc1ccccc1NS(C)(=O)=O property_name="melting point" value_observed="73 to 75 °C"
compound=O=c1nc(-c2cccc(CS(=O)(=O)Cc3ccccc3)n2)sc2ccccc12 property_name="melting point" value_observed="246 to 248 °C"
